System: HCT-15 colon
Test summary: NCI tumour cell line growth inhibition, 48 h
Measurement name: TGI

What does the record list as TGI for "C=C(Cl)Cc1c(O)c2c(c(O)c1CC(=C)Cl)C(=O)c1ccccc1C2=O" ?
> 100 µM

Request: "Cc1cc(OCc2nnc3n2N=C(c2ccc(Cl)cc2Cl)CS3)ccc1Cl"
> 100 µM

Can you check "O=C(N/N=C\C(F)(F)F)c1ccncc1" next?
> 100 µM

Now try "Cc1nc2c(=O)n3c4c(cccc4c2o1)CCC3" .
> 100 µM

Another compound to check: "CCOP(=O)(OCC)/C(C#N)=C/c1ccnc2ccccc12"
52.4 µM

Please answer likewise for "COc1cccc(-c2nc(-c3cnccn3)n(COCCO)n2)c1"
> 100 µM

====

Tested on: UO-31 renal
Test summary: NCI tumour cell line growth inhibition, 48 h
Measurement name: TGI

Param readout = TGI; param system = UO-31 renal; param query = "Cc1c(Sc2ccccc2)[n+](=O)c2cc(Cl)c(Cl)cc2n1[O-]" ; response: value
> 100 µM

// same read-out, input: CCC(Oc1ccc(OC)c2ccccc(=O)c12)C(=O)O (stereo not drawn)
> 100 µM

And for CC12Oc3ccc4ccccc4c3CC1Cc1c(ccc3ccccc13)O2 (stereo not drawn) ?
> 100 µM

====

Tested on: HOP-92 NSCLC
Test summary: NCI tumour cell line growth inhibition, 48 h
Measurement name: TGI

Fill in: TGI of "O=C1NCCS(=O)(=O)/C1=C\C=C\c1cccc(C(F)(F)F)c1" is ___
16.4 µM

What do we get for "C=CS(=O)(=O)CCN1CC1" ?
> 10 µM

Let us now turn to CC(=O)OCC(Br)C1(C)CCC(C(C)(C)Br)O1 (stereo not given)
> 100 µM

Now try COc1ccc2nc(NC(=O)C(=O)C(C#N)c3ccc(Cl)c(Cl)c3)sc2c1 (stereo not given) .
> 100 µM

Same thing, different molecule: COC(=O)C1=C(C)N2CCOC2CC1c1ccccc1 (stereo not given)
> 100 µM

====

So I've got a bunch of compounds here, and I need their TGI values.
Test system: SK-OV-3 ovarian
Test summary: NCI tumour cell line growth inhibition, 48 h

Any idea what its TGI is? The compound is "C/C(=N\NC(=S)NCc1ccccc1)c1nc2ncccc2[nH]1"
> 100 µM

// next record "CCC(=O)N/N=C(\C=C\c1cccc(O)c1)c1sc(Nc2ccc(C)cc2[N+](=O)[O-])nc1C"
> 100 µM

What about "O=C1OC(c2ccccc2)=N/C1=C\c1cccc(F)c1" ?
> 100 µM

Also CNC(=O)OCC1C2=C(C(=O)C(C)=C(N)C2=O)N2CC3C(N3C)C12OC (stereo not given) , if possible.
> 100 µM

What do we get for "CC1(C)O[C@@H](CBr)C[C@H](C[C@H]2C[C@@H](O)C[C@@H](CCOCc3ccccc3)O2)O1" ?
33.7 µM

====

Could you please report measured GI50 for the items listed next?
Tested on: TK-10 renal

Quick check: GI50 of "CO[C@H]1CC(c2ccc[nH]2)=N[C@]12O[C@@H](C)C[C@@H]1CCCCCCCc3ccc([nH]3)[C@H]12" ?
2.33 µM

Lookup "O=C1NCCS(=O)(=O)/C1=C\C=C\c1cccc(C(F)(F)F)c1"
3.95 µM

Again, but for "CC(=O)Oc1ccc(C(c2ccc(OC(C)=O)cc2)c2ccccn2)cc1"
> 59.7 µM

What about "COc1cc2c3c(n(CCCN=[N+]=[N-])c(=O)c2cc1OC)-c1ccc(N(C)C)cc1C3=O" ?
> 100 µM

Query "CC1(C)OC(=O)C=C([O-])O1.CC1(C)OC(=O)C=C([O-])O1.CC[O-].CC[O-].[Ti+4]" next
> 100 µM

Lookup "COc1ccc(Nc2cc(C)nc(N3CCN(c4ccnc5cc(Cl)ccc45)CC3)n2)cc1"
3.64 µM
